# Test system: SN12C
# Assay explanation: Cytotoxicity against human SN12C cells assessed as cell growth at 10 uM
# Format: functional
# Condition description: Homo sapiens, SN12C; read-out: Activity
Please go through the items and note down their growth at 10 µM.
Reply numerically in %, unit not repeated.

# get_value(readout= growth at 10 µM, system= SN12C) for FC(F)(F)c1cc(Nc2nccc(-c3ccc(-c4ccccc4)nc3)n2)cc(C(F)(F)F)c1 86.1

What is its growth at 10 µM for SN12C? Entry: CC(=O)Nc1cccc(-c2ccc(-c3ccnc(NC(=O)Nc4cc(C(F)(F)F)cc(C(F)(F)F)c4)n3)cn2)c1.Cl 68

// lookup growth at 10 µM | system=SN12C | key= Cc1ccc(Nc2nc(C)cc(-c3cccnc3)n2)c(C)c1 91.2

# query: growth at 10 µM | item Cc1cc(-c2cccnc2)nc(NC(=O)c2cccc(C(F)(F)F)c2)n1 | system: SN12C 95.3

I'm curious: which growth at 10 µM was measured for FC(F)(F)c1cc(Nc2nccc(-c3cccnc3)n2)cc(C(F)(F)F)c1 tested on SN12C? 88

###

# System: Malme-3M
# Assay explanation: Growth inhibition of human MALME-3M cells after 48 hrs by sulforhodamine B assay
# Format: functional, cell-based
# Condition description: Homo sapiens, Malme-3M, 48 h; read-out: IC50
Metric name: pIC50
Note on pIC50: it is the negative log10 of concentration, concentration in mol/L.

Consider the molecule CC(=O)Nc1cccc(-c2ccc(-c3ccnc(NC(=O)Nc4cc(C(F)(F)F)cc(C(F)(F)F)c4)n3)cn2)c1.Cl and give its measured pIC50. 5.70

###

# System: SNB-19
# Assay explanation: Cytotoxicity against human SNB19 cells assessed as cell growth at 10 uM
# Assay type: functional
# Condition description: read-out: Activity
Metric name: growth at 10 µM
Hi, when you answer, please include the unit after the number. Thanks!

What measured growth at 10 µM is associated with CC(=O)Nc1cccc(-c2ccc(-c3ccnc(NC(=O)Nc4cc(C(F)(F)F)cc(C(F)(F)F)c4)n3)cn2)c1.Cl on SNB-19? 50.5%

Requested read-out growth at 10 µM, target or system SNB-19, entry Cc1cc(-c2cccnc2)nc(NC(=O)c2cccc(C(F)(F)F)c2)n1 90.8%

SNB-19 / growth at 10 µM / Cc1ccc(Nc2nc(C)cc(-c3cccnc3)n2)c(C)c1 : value? 101%

Short answer please: growth at 10 µM, SNB-19, entry CC(=O)c1ccc(-c2ccc(-c3ccnc(Nc4cc(C(F)(F)F)cc(C(F)(F)F)c4)n3)cn2)cc1 110%

growth at 10 µM of FC(F)(F)c1cc(Nc2nccc(-c3ccc(-c4ccccc4)nc3)n2)cc(C(F)(F)F)c1 on SNB-19? 109%

Return growth at 10 µM measured with SNB-19 given this compound: O=C(Nc1cc(C(F)(F)F)cc(C(F)(F)F)c1)Nc1nccc(-c2ccc(Nc3ccccc3)nc2)n1 109%

API: value(readout=growth at 10 µM, system=SNB-19) for record CC(=O)c1ccccc1-c1ccc(-c2ccnc(NC(=O)Nc3cc(C(F)(F)F)cc(C(F)(F)F)c3)n2)cn1 91.5%

Query the reported growth at 10 µM for SNB-19; item: CC(=O)c1ccccc1-c1ccc(-c2ccnc(NC(=O)Nc3cc(N4CCOCC4)cc(C(F)(F)F)c3)n2)cn1 71.7%

Write down the reported growth at 10 µM of c1ccc(-c2ccc(-c3ccnc(Nc4ccc(N(c5ccccc5)c5ccccc5)cc4)n3)cn2)cc1 , test system: SNB-19. 135%

# value lookup — system SNB-19, readout growth at 10 µM, item FC(F)(F)c1cc(Nc2nccc(-c3ccc(Nc4ccccc4)nc3)n2)cc(C(F)(F)F)c1 91.6%

Entry FC(F)(F)c1cc(Nc2nccc(-c3cccnc3)n2)cc(C(F)(F)F)c1 , system SNB-19: what growth at 10 µM was measured? 94%
